Please provide measured final OD630 for the entries that follow.
Test system: Klebsiella pneumoniae ATCC 13882
Assay: final OD630 (growth) after 24 h; higher = more bacterial growth; extreme values may be limits of the assay
Conditions: 0.1 mM
Give bare numbers.

Before answering, review these 3 worked examples.
COMPOUND: O=C(O)CCC(CC(=O)O)C(=O)O (stereo unspecified)
final OD630: 0.424
--
COMPOUND: O=S([O-])[O-].[Na+].[Na+] [Sodium sulfite]
final OD630: 0.477
--
COMPOUND: O=C(OC[C@H]1O[C@@H](OC(=O)c2cc(O)c(O)c(OC(=O)c3cc(O)c(O)c(O)c3)c2)[C@H](OC(=O)c2cc(O)c(O)c(OC(=O)c3cc(O)c(O)c(O)c3)c2)[C@@H](OC(=O)c2cc(O)c(O)c(OC(=O)c3cc(O)c(O)c(O)c3)c2)[C@@H]1OC(=O)c1cc(O)c(O)c(OC(=O)c2cc(O)c(O)c(O)c2)c1)c1cc(O)c(O)c(OC(=O)c2cc(O)c(O)c(O)c2)c1
final OD630: 0.452

Report final OD630 for each item below.
1. O=S(O)(O)=S [Sodium thiosulfate]
2. O[C@@H](CS)[C@@H](O)CS
3. O=[N+]([O-])[O-].[Ag+]

[A]
[0.476, 0.432, 0]

----------
Please provide measured final OD630 for the entries that follow.
Test system: Klebsiella pneumoniae ATCC 13882
Assay: final OD630 (growth) after 24 h; higher = more bacterial growth; extreme values may be limits of the assay
Settings: 10 mM
Structures can show the parent of a compound that is named as a salt.
Give bare numbers.

COMPOUND: C=CCNC(N)=S
final OD630: 0.366
//
COMPOUND: O=C(OC[C@H]1O[C@@H](OC(=O)c2cc(O)c(O)c(OC(=O)c3cc(O)c(O)c(O)c3)c2)[C@H](OC(=O)c2cc(O)c(O)c(OC(=O)c3cc(O)c(O)c(O)c3)c2)[C@@H](OC(=O)c2cc(O)c(O)c(OC(=O)c3cc(O)c(O)c(O)c3)c2)[C@@H]1OC(=O)c1cc(O)c(O)c(OC(=O)c2cc(O)c(O)c(O)c2)c1)c1cc(O)c(O)c(OC(=O)c2cc(O)c(O)c(O)c2)c1
final OD630: 0
//
COMPOUND: c1c[nH]cn1
final OD630: 0.439
//
COMPOUND: O=[N+]([O-])[O-].[Ag+]
final OD630: 0

Report final OD630 for each item below.
1. OB(O)O
2. O=[N+]([O-])C(Br)(CO)CO
3. O=S([O-])[O-].[Na+].[Na+] [Sodium sulfite]
4. O=C(O)CCC(CC(=O)O)C(=O)O (configuration not stated)
5. CC(O)(P(=O)(O)O)P(=O)(O)O [Etidronic acid monohydrate]
6. O[C@@H](CS)[C@@H](O)CS
7. CCOC(=O)[C@@H](N)CS [L-cysteine ethyl ester hydrochloride]

[A]
[0.297, 0, 0.416, 0, 0, 0.264, 0.422]

Report final OD630 for each item below.
1. C=C(CC)C(=O)c1ccc(OCC(=O)O)c(Cl)c1Cl
2. N#C[S-].[Na+] [Sodium thiocyanate]

[A]
0
0.403

Report final OD630 for each item below.
1. Oc1ccccc1O
2. O=C(O)C(=O)O
3. NC(N)=S
4. O=S(O)(O)=S [Sodium thiosulfate]
5. NC=O [Formamide]

[A]
1: 0; 2: 0.089; 3: 0.483; 4: 0.454; 5: 0.513
